# TGI annotations
# System: SK-MEL-2 melanoma
# assay-summary: NCI tumour cell line growth inhibition, 48 h

Would you mind telling me what TGI value was observed for O=C(Nc1cccc(C(F)(F)F)c1)c1ccc(NC2=C(Cl)C(=O)N(Cc3ccccc3)C2=O)cc1 ? 24.2 µM

Need TGI of Cc1nc(-n2nc(-c3ccccc3)cc2-c2ccccc2)sc1C(=O)/C=C/c1ccc([N+](=O)[O-])cc1 , thanks. > 100 µM

Entry COc1ccccc1NC(=O)CC(=O)n1nc(C)c(N=Nc2ccccc2Cl)c1C : reported TGI = ? > 100 µM

Any idea what TGI was measured for O=C(O)/C=C/c1ccc(OS(=O)(=O)O)cc1 ? > 100 µM

Return reported TGI; argument: Cc1ccc(/C=N/NS(=O)(=O)c2ccccc2)cc1C > 100 µM

Please look up its TGI: O=C1OC(c2ccc(Cl)cc2)=N/C1=C\c1ccccc1 > 100 µM

I have this compound here, Nc1nc(SCCNC(=O)CCc2ccc(O)c(I)c2)nc2c1ncn2C1OC(CO)C(O)C1O (stereo not given) , and I need its recorded TGI. > 100 µM

// TGI lookup, key: CC(C)(C)OC(=O)N1CC(C)(C)N2C(=O)C3(CCCO3)C12 (stereo not given) > 100 µM

Looking for the measured TGI of CCOC(=O)C(NC(=O)c1cccc(Cl)c1)(Nc1ccc(S(=O)(=O)Nc2cc(C)nc(C)n2)cc1)C(F)(F)F (stereo not given) , can you help? > 100 µM

I have this compound here, O=C(Nc1n[nH]c2nc(-c3ccc(O)cc3)c(Br)cc12)C1CC1 , and I need its recorded TGI. 7.17 µM
